Data credit: ChEMBL document CHEMBL2346568

Protocol text: Clearance in F344 rat at 2 mg/kg, iv
Experimental setup: in vivo
Measure name: clearance (mL/min/kg)
Expressed in mL/min/kg, but write only the number.

Returns the measured clearance for the input molecule. Input: "NC(=O)c1sc2nccc(N3CCCN(c4ccccc4)CC3)c2c1N" 29

* * *

Reported bioavailability values follow for various compounds
Protocol text: Oral bioavailability in F344 rat at 25 mg/kg
Format: ADME, organism-based
Experimental setup: in vivo
Respond with the bare value in %.

What value of bioavailability has been recorded for this entry: "NC(=O)c1sc2nccc(N3CCCN(c4ccccc4)CC3)c2c1N" 71

Check "CN(C)c1ccnc2sc(C(N)=O)c(N)c12" too. 87
